System: OVCAR-3 ovarian
Experiment: NCI-60 one-dose screen, 48 h
Settings: 10 µM unless noted
The panel holds about 83,000 compounds, 20% with a hit somewhere; the sample as a whole holds those more often. Activity calls are given as the source filed them. The calls were made as follows: active = growth percent below 10; inactive = the rest.
Outcomes: true (active), false (inactive)

# Compound, Label
data = [
    ("COC(=O)C(N)CC(C)C (stereo not drawn)", "false"),
    ("O=C1NCCN1/N=C/c1c(Cl)nc2n1CCS2", "false"),
    ("N=C(N)N=Nc1ccc(NN=C(N)N)cc1", "false"),
    ("O=CN/N=C/c1ccc(Cl)c([N+](=O)[O-])c1", "false"),
    ("CCCCCCNC(=O)Oc1ccc(/C(=C(/C)Cc2ccc(OC)cc2)c2ccc(OCCN(C)C)cc2)cc1", "false"),
    ("CCCCCCN(CCCCCC)CCC(=O)Nc1ccc(S(=O)(=O)c2ccc(NC(=O)CCN(CCCCCC)CCCCCC)cc2)cc1", "false"),
    ("C=CCN(C)C", "false"),
    ("CC(CCN1CCN(CCC(C)CC(C)(C)C)C1CC(C)CC(C)(C)C)CC(C)(C)C (stereo not drawn)", "false"),
    ("Cc1ncc(C(=O)Nc2ccc(CN3CCN(C)CC3)c(C(F)(F)F)c2)cc1C#Cc1c(N)ncc2ccc(F)cc12", "true"),
    ("CC(=O)CCS(=O)c1ccccc1 (stereo not drawn)", "false"),
    ("Cc1ccc(OCCn2ccc(=O)n(CCOc3ccc(Cl)cc3C(=O)c3cc(C)cc(C)c3)c2=O)cc1", "false"),
    ("COc1cccc(NC(=O)NCCNc2nccc(-c3c(-c4ccc(F)cc4)nc4sccn34)n2)c1", "false"),
    ("COc1ccccc1Nc1nnc(COc2ccc(CNC(=O)CCCC/C=C/C(C)C)cc2OC)o1", "false"),
    ("Nc1cc(N)c2nc(-c3ccccc3)c(NCCc3ccc(Cl)c(Cl)c3)nc2c1", "true"),
    ("CCOC(=O)C(C)C(C)(O)c1ccccc1 (stereo not drawn)", "false"),
    ("COc1ccc(CN2C(=O)/C(=C\\C(=O)c3ccc(OCCN4CCCC4)cc3)c3ccccc32)cc1", "false"),
    ("COc1ccc2c(N)ncc(C#Cc3cc(C(=O)Nc4ccc(CN5CCN(C)CC5)c(C(F)(F)F)c4)cnc3C)c2c1", "false"),
    ("O=C(O)c1ccc(-c2nn(-c3ccc(C(=O)O)cc3)cc2CNc2ccc(Br)cc2)cc1", "false"),
    ("O=S(=O)(O)CCI", "false"),
    ("C/C(=N\\Nc1ccc(Cl)cn1)c1ccc2ccccc2n1", "false"),
    ("CCCCCCCCCCCC(=O)OC(C)C(=O)Nc1ccccc1 (stereo not drawn)", "false"),
    ("CCOC(=O)c1c(C)oc2ncnc(Nc3ccc(NC(=O)Nc4cccc(Cl)c4)cc3)c12", "false"),
    ("CC(=O)Nc1nc(C)c(C(=O)N/N=C/N2CCOCC2)s1", "false"),
    ("CCOC(=O)c1cc(-c2ccc(OC)cc2)[nH]c1NNC(=O)CCOC", "false"),
    ("O=C(N/N=C/c1ccccc1Cl)c1cccc2ccccc12", "false"),
    ("CCCNC(=O)Oc1ccc(/C(=C(/CC)Cc2ccccc2)c2ccc(OCCN(CC)CC)cc2)cc1", "false"),
    ("COc1cccc2c1nc1cccc(OC)c1[n+]2[O-]", "false"),
    ("O=C(/C=C/c1ccc(Br)cc1)c1ccccc1", "false"),
    ("COC(c1ccccc1)C(Br)C(=O)c1ccccc1 (stereo not drawn)", "false"),
    ("O=C(NC(=S)NNC(=S)NNc1ccccc1)c1ccccc1", "false"),
    ("Cc1ccc2c(O)c(O)cc(NC(C)CCCN)c2n1 (stereo not drawn)", "false"),
    ("CCOC(=O)C1=NN(c2ccccc2)C2=NC(=O)/C(=C\\c3cn(-c4ccccc4)nc3-c3cc4ccccc4o3)C(=O)N12", "false"),
    ("COc1ccc(NC(=O)/C=C(C)/C=C/C=C(C)/C=C/C2=C(C)CCCC2(C)C)cc1", "false"),
    ("C/C=C/C/C=C/[C@H](C)C[C@H](O)[C@@H]1C[C@@H]2O[C@H]2/C=C/[C@@H]2OC(C)(C)O[C@H]2/C=C/C[C@H](C)CC(=O)O1", "false"),
    ("O=C1/C(=N\\c2cc(=O)[nH]n2S(=O)(=O)c2ccccc2)Nc2ccccc21", "false"),
    ("CCCCCCCCCCCCCCCC[n+]1cccc(C#N)c1", "false"),
    ("O=c1[nH]c(=S)[nH]c(O)c1/C=C1\\C=Nc2ccccc21", "false"),
    ("C/C(=N\\Nc1cccc(Cl)n1)c1ccccn1", "false"),
    ("COc1ccc(/C=C/C(=O)/C=C/c2cc3ccccc3[nH]c2=O)cc1", "false"),
    ("COc1ccc2sc(-n3nc4nc5n(c(=O)c4c3N)-c3ccccc3Sc3ccccc3-5)nc2c1", "false"),
    ("CC(=O)c1cc(Nc2cc(C)nc(N)n2)cc(C(C)=O)c1", "false"),
    ("O=C1CCNC1", "false"),
    ("COc1cc([C@@H]2c3cc4c(cc3[C@H](O)[C@H]3COC[C@@H]23)OCO4)cc(OC)c1OC", "false"),
]

---

System: PC-3 prostate
Assay: NCI-60 one-dose screen, 48 h
Conditions: 10 µM unless noted
Compounds without any hit were thinned out: in the full panel of roughly 83,000, 20% have a hit. Activity calls are given as the source filed them. Rule for the calls: active = growth percent below 10; inactive = the rest.
Classes used: 1 = active, 0 = inactive

# Compound, Label
rows = [
    ("CC(C)OC(=O)Nn1cnc2ccccc21", 0),
    ("O=C(Nc1ccc(-n2cc(-c3ccncc3)c(-c3ccc(Cl)c(O)c3)n2)cc1)c1ccc(Cl)c(C(F)(F)F)c1", 1),
    ("COc1cc(N2C(=O)C=CC2=O)ccc1N1C(=O)C=CC1=O", 0),
    ("CC(=O)OC1CC2C3CCC4C[C@@H](NC(=O)C=C(C)C)CC[C@]4(C)C3CC[C@]2(C)[C@H]1C(C)N(C)C (stereo not given in full)", 0),
    ("Cc1[nH]n(C(=S)Nc2nc3cc(Cl)c(F)cc3s2)c(=O)c1N=Nc1ccc(F)c(Cl)c1", 0),
]

---

Test system: MOLT-4 leukemia
Assay: NCI-60 one-dose screen, 48 h (100 = growth as untreated, 0 = no growth, -100 = all killed)
Conditions: 10 µM unless noted
This is part of a sample that, as a whole, favours compounds with a hit. Of some 83,000 tested, about 20% had one in any assay. The source made the active and inactive calls. The calls were made as follows: active = growth percent below 10; inactive = the rest.

# Compound, growth
records = [
    ("CC(C)C(=O)c1ccc(Cl)s1", "97.4% (inactive)"),
    ("CCCCCc1ccnc(CC(=O)c2ccc(OC)cc2)c1", "98.7% (inactive)"),
    ("O=c1[nH]c(=S)[nH]c(O)c1/C=C1\\C=Nc2ccccc21", "42.4% (inactive)"),
    ("O=C(NC1CCN(Cc2ccccc2)CC1)c1cc(-c2cccnc2)nc2ccc(Cl)cc12", "58.9% (inactive)"),
    ("COc1ccc(C2C3(C#N)C(N)=NC(=C(C#N)C#N)C23C#N)cc1OC (stereo unspecified)", "102% (inactive)"),
    ("COc1cc2cc3cc4cc(OC)c(OC)cc4c(C)[n+]3cc2cc1OC (tested in a mixture with another compound)", "40.1% (inactive)"),
    ("CC(=O)N(N=O)c1ccc([N+](=O)[O-])cc1Cl", "58.4% (inactive)"),
    ("CCOC(=O)C(C)C(C)(O)c1ccccc1 (stereo unspecified)", "95.4% (inactive)"),
    ("Oc1ccccc1/C=N/N=C\\c1ccccc1Cl", "61.3% (inactive)"),
    ("COc1cc(C(=O)Nc2ccc(N(C)C)cc2)cc(OC)c1OC", "92% (inactive)"),
    ("Nc1nc2c(c3cnccc13)C(c1cccc(Cl)c1)Cc1cnccc1-2 (stereo unspecified)", "16.5% (inactive)"),
]

---

System: NCI-H322M lung
Experiment: NCI-60 one-dose screen, 48 h (100 = growth as untreated, 0 = no growth, -100 = all killed)
Conditions: 10 µM unless noted
The panel holds about 83,000 compounds, 20% with a hit somewhere; the sample as a whole holds those more often.
The threshold is inclusive: growth of exactly 70% counts as 1; values below receive 0.

# Compound, Label
measured = [
    ("Cc1ccc(S(=O)(=O)N/N=C2\\CC3CCC2C3)cc1 (stereo unspecified)", 1),
    ("Cc1nc(NC(=S)Nc2ccc(F)cc2)sc1C(=O)NNC(=S)Nc1ccc(F)cc1", 1),
    ("CCOP1(=O)CC(C)=C(Cl)C(P(=O)(O)O)C1 (stereo unspecified)", 1),
    ("CCCOC(=O)c1c(C)n(C)c2scc[n+]12", 0),
    ("C=C(C)C(C(=O)OCC)(C(=O)OCC)C(C)C", 1),
    ("Oc1ccc(N=Nc2ccc(N=Nc3ccccc3)cc2)cc1", 0),
    ("CC(=O)Nc1ccc(S(=O)(=O)Cl)cc1", 1),
    ("Cc1ncc(C(=O)Nc2ccc(CN3CCN(C)CC3)c(C(F)(F)F)c2)cc1C#Cc1c(N)ncc2ccccc12", 0),
    ("CCN(CC)CCCNc1c2ccc(Cl)cc2nc2ccc(OC)cc12", 0),
    ("Nc1nc2c(c3cnccc13)C(c1ccc(Cl)c(Cl)c1)Cc1cnccc1-2 (stereo unspecified)", 0),
]
